# self-splicing fitness (ln) per record follows
experiment: self-splicing fitness, log relative to wild type (ln ratio); higher = more splicing; Tetrahymena group I intron in knt gene, E. coli kanamycin selection, DiMSum; sequences stand for … in CUCUCU…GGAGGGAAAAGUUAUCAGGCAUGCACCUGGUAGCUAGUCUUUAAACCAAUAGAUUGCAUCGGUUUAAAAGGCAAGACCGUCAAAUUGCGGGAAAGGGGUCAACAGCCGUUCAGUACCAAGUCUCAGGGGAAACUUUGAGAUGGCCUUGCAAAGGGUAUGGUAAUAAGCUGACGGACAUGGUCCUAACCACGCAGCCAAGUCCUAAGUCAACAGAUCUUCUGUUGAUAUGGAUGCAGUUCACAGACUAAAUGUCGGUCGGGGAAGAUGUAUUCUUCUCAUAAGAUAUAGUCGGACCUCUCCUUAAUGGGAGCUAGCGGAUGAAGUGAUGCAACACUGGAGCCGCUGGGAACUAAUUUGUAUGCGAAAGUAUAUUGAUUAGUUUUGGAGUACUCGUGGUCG; conditions: 30 °C;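 also: selection with 25 µg/mL kanamycin versus none on LB agar overnight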
Enter the number alone.

Answered cases to consult:
IN: Quick one: self-splicing fitness (ln) for AACCAGCAAUAUUACGUUAG ?
OUT: -3.68

IN: Quick one: self-splicing fitness (ln) for GCGCAGCAAUAUUACGCCGU ?
OUT: -1.57

IN: Quick one: self-splicing fitness (ln) for GACAAGCAAUAUUACGAUAU ?
OUT: -1.33

We now examine a further sequence.
IN: Quick one: self-splicing fitness (ln) for AGUGAGCAAUAUUACGGUCC ?
OUT: -0.948
